Tested on: rodent lifetime carcinogenesis bioassay, tumor incidence TD50
Assay: carcinogenic potency in animals, long-term in vivo studies, CPDB compilation (AID 1745844)
Conditions: rat; strain Charles River CD (Sprague-Dawley); females; inhaled; site: mammary gland; lesion: several types; types named in the paper; dosed 105 weeks; study length 105 weeks
endpoint: TD50

// field: TD50; key: C=CC=C ; value = 133 mg/kg/day

----------
Tested on: rodent lifetime carcinogenesis bioassay, tumor incidence TD50
Experiment: carcinogenic potency in animals, long-term in vivo studies, CPDB compilation (AID 1745844)
Details: rat; strain Wistar; males; in feed; site: liver; lesion: hepatocellular carcinoma; dosed 59 weeks; study length 59 weeks
endpoint: TD50

Tested system rodent lifetime carcinogenesis bioassay, tumor incidence TD50; TD50 recorded for CC(C)(Oc1ccc(C2CCCc3ccccc32)cc1)C(=O)O (stereo unspecified) was 58.1 mg/kg/day

----------
System: rodent lifetime carcinogenesis bioassay, tumor incidence TD50
Assay: carcinogenic potency in animals, long-term in vivo studies, CPDB compilation (AID 1745844)
Conditions: rat; strain Sprague-Dawley; males; by gavage; site: any site (literature study); lesion: malignant tumor; dosed 32 weeks; study length 101 weeks
endpoint: TD50 (mg/kg/day)
Enter your answer as a number in mg/kg/day; do not include the unit.

// field: TD50; key: O=NN(CCCC(F)(F)F)CCCC(F)(F)F ; value = 0.363

----------
Tested on: rodent lifetime carcinogenesis bioassay, tumor incidence TD50
Experiment: carcinogenic potency in animals, long-term in vivo studies, CPDB compilation (AID 1745844)
Settings: mouse; strain CD-1 HaM/ICR; females; in feed; site: any site (literature study); lesion: several types; types named in the paper; dosed 77 weeks; study length 94 weeks
The source made the active and inactive calls. How the calls were made is not given here.
endpoint: TD50

Nc1nc(N)nc(-c2ccccc2)n1 : 932 mg/kg/day (inactive)

Read the next record carefully.
// field: TD50; key: O=[N+]([O-])c1ccc(Cl)c([N+](=O)[O-])c1 ; value = 124 mg/kg/day (inactive)

----------
Test system: rodent lifetime carcinogenesis bioassay, tumor incidence TD50
Assay: carcinogenic potency in animals, long-term in vivo studies, CPDB compilation (AID 1745844)
Settings: hamster; strain Syrian Golden; males; inhaled; site: colon; lesion: papilloma; dosed 52 weeks; study length 104 weeks
endpoint: TD50

// field: TD50; key: NN ; value = 70.5 mg/kg/day

----------
System: rodent lifetime carcinogenesis bioassay, tumor incidence TD50
Test: carcinogenic potency in animals, long-term in vivo studies, CPDB compilation (AID 1745844)
Details: rat; strain Fischer 344; females; in drinking water; site: nasal cavity; lesion: olfactory carcinoma; dosed 60 weeks; study length 82 weeks
endpoint: TD50

// field: TD50; key: O=NN1CCCN(N=O)CC1 ; value = 0.207 mg/kg/day

----------
Tested on: rodent lifetime carcinogenesis bioassay, tumor incidence TD50
Assay: carcinogenic potency in animals, long-term in vivo studies, CPDB compilation (AID 1745844)
Conditions: mouse; strain B6C3F1; males; in drinking water; site: lung; lesion: several types; types named in the paper; dosed 103 weeks; study length 106 weeks
Calls of active or inactive are those of the source. No rule for the calls is given here.
endpoint: TD50

// field: TD50; key: OCl ; value = 2040 mg/kg/day (inactive)

----------
Test system: rodent lifetime carcinogenesis bioassay, tumor incidence TD50
Assay: carcinogenic potency in animals, long-term in vivo studies, CPDB compilation (AID 1745844)
Conditions: rat; strain BD VI; females; by gavage; site: any site (literature study); lesion: malignant tumor; dosed 116 weeks; study length 116 weeks
Calls of active or inactive are those of the source. The rule behind the calls is not given here.
endpoint: TD50

Tested system rodent lifetime carcinogenesis bioassay, tumor incidence TD50; TD50 recorded for CN(N=O)c1cccnc1 was 6.09 mg/kg/day (inactive)
